# System: HL-60(TB)
# test: Growth inhibition of human HL-60(TB) cells after 48 hrs by sulforhodamine B assay
# Type: functional
# run.parameters: HL-60, 48 h, read-out: LC50 (the source's name)
readout.name: CC50

COc1cc(-c2nn(-c3cccc(NC(=O)c4ccccc4)c3)cc2-c2ccncc2)ccc1Cl | > 100 µM

For each of the items listed, what is its CC50?
1. COc1cc(-c2nn(-c3cccc(NC(=O)c4ccc(N5CCOCC5)c(C(F)(F)F)c4)c3)cc2-c2ccncc2)ccc1Cl
2. COc1cc(-c2nn(-c3cccc(NC(=O)Nc4cccc(C(F)(F)F)c4)c3)cc2-c2ccncc2)ccc1Cl
3. COc1cc(-c2nn(-c3cccc(NC(=O)c4cccc(C(F)(F)F)c4)c3)cc2-c2ccncc2)ccc1Cl
4. O=C(Nc1cccc(-n2cc(-c3ccncc3)c(-c3ccc(Cl)c(O)c3)n2)c1)Nc1cccc(C(F)(F)F)c1

1: > 100 µM; 2: > 50 µM; 3: > 50 µM; 4: > 32.5 µM

---

# System: M14
# test: Growth inhibition of human M14 cells after 48 hrs by sulforhodamine B assay
# Assay type: functional
# run.parameters: M14, 48 h
readout.name: GI50 (nM)
Numbers only, in nM.

# count of solved cases: 4
COc1cc(-c2nn(-c3cccc(NC(=O)Nc4ccc(Cl)c(Cl)c4)c3)cc2-c2ccncc2)ccc1Cl | 911
COc1cc(-c2nn(-c3cccc(NC(=O)Nc4cccc(C(F)(F)F)c4)c3)cc2-c2ccncc2)ccc1Cl | 754
O=C(Nc1cccc(-n2cc(-c3ccncc3)c(-c3ccc(Cl)c(O)c3)n2)c1)c1ccc(N2CCOCC2)c(C(F)(F)F)c1 | 1630
COc1cc(-c2nn(-c3cccc(NC(=O)c4ccccc4)c3)cc2-c2ccncc2)ccc1Cl | 575

Output measured GI50 for this item: COc1cc(-c2nn(-c3cccc(NC(=O)c4cccc(C(F)(F)F)c4)c3)cc2-c2ccncc2)ccc1Cl 1630

---

# Tested on: NCI-H522
# test: Growth inhibition of human NCI-H522 cells assessed as cell growth at 10 uM after 48 hrs by sulforhodamine B assay
# Assay type: functional
# run.parameters: NCI-H522, 48 h, read-out: Activity
readout.name: growth at 10 µM (%)
Answers are plain numbers, in %.

For each of the items listed, what is its growth at 10 µM?
1. COc1cc(-c2nn(-c3cccc(NC(=O)Nc4ccc(Cl)c(Cl)c4)c3)cc2-c2ccncc2)ccc1Cl
2. O=C(Nc1cccc(-n2cc(-c3ccncc3)c(-c3ccc(Cl)c(O)c3)n2)c1)c1ccccc1
3. COc1cc(-c2nn(-c3cccc(NC(=O)Nc4ccc(Cl)c(C(F)(F)F)c4)c3)cc2-c2ccncc2)ccc1Cl
4. COc1cc(-c2nn(-c3cccc(NC(=O)Nc4ccccc4)c3)cc2-c2ccncc2)ccc1Cl
5. O=C(Nc1cccc(-n2cc(-c3ccncc3)c(-c3ccc(Cl)c(O)c3)n2)c1)Nc1ccc(Cl)c(C(F)(F)F)c1

-14.7
42.3
-13.9
67.4
-30

---

# Tested on: KM12
# test: Growth inhibition of human KM12 cells assessed as cell growth at 10 uM after 48 hrs by sulforhodamine B assay
# Format: functional
# run.parameters: KM12, 48 h, read-out: Activity
Exercise: state measured growth at 10 µM for each of the molecules provided.
Answers are plain numbers, in %.

# count of solved cases: 3
COc1cc(-c2nn(-c3cccc(NC(=O)Nc4cccc(C(F)(F)F)c4)c3)cc2-c2ccncc2)ccc1Cl | -27.8
COc1cc(-c2nn(-c3cccc(NC(=O)c4ccc(N5CCOCC5)c(C(F)(F)F)c4)c3)cc2-c2ccncc2)ccc1Cl | 5.64
COc1cc(-c2nn(-c3cccc(NC(=O)Nc4ccc(Cl)c(Cl)c4)c3)cc2-c2ccncc2)ccc1Cl | 1.3

For each of the items listed, what is its growth at 10 µM?
1. O=C(Nc1cccc(-n2cc(-c3ccncc3)c(-c3ccc(Cl)c(O)c3)n2)c1)Nc1ccc(Cl)c(Cl)c1
2. COc1cc(-c2nn(-c3cccc(NC(=O)c4ccccc4)c3)cc2-c2ccncc2)ccc1Cl

1. 8.15
2. 12.3
